Entry source: ChEMBL document CHEMBL1132437

tested on: Mus musculus; experiment: In vivo efficacy against Streptococcus pneumoniae ATCC 6303 in mouse protection test after administration by oral gavage; assay type: functional
For each of the compounds below, state its ED50.
Numbers only, in mg/kg.

Batch lookup, ED50 per entry.
1. Cc1c(N2C[C@@H]3CCN[C@@H]3C2)c(F)cn2c(=O)c(C(=O)O)cc(C3CC3)c12 (stereo in doubt; 3gg)
2. Cc1c(N2C[C@@H](N)[C@H](C3CC3)C2)c(F)cn2c(=O)c(C(=O)O)cc(C3CC3)c12 (stereo in doubt)
3. Cc1c(N2CCCC(NC3CC3)C2)c(F)cn2c(=O)c(C(=O)O)cc(C3CC3)c12 (centres undefined)
4. Cc1c(N2CC[C@H](NC3CC3)C2)c(F)cn2c(=O)c(C(=O)O)cc(C3CC3)c12
5. Cc1c(N2CC[C@@H](NCCF)C2)c(F)cn2c(=O)c(C(=O)O)cc(C3CC3)c12
6. Cc1c(N2C[C@H]3CNC[C@H]3C2)c(F)cn2c(=O)c(C(=O)O)cc(C3CC3)c12
7. Cc1c(N2CC[C@@H](C)[C@H](N)C2)c(F)cn2c(=O)c(C(=O)O)cc(C3CC3)c12

Reply:
[7.6, 25, 2.5, 23.1, 30.7, 25.2, 1]
